Tested on: K5 (Thyroid Gland Carcinoma)
EXPERIMENT_DESCRIPTION: combination Emax (second highest fraction inhibited in the dose matrix, 72 h); higher = more inhibition; extreme values may be limits of the assay
Binary call on combination Emax: met from 0.6 upward, not met beneath that.

Here are 4 molecules together with their reported answers.
| MOLECULE | GROUP_LABEL |
| --- | --- |
| Cc1cc2ncnn2cc1Nc1ncc2c(n1)n(C1CCOCC1)c(=O)n2C [AZD7648] + O=C(c1cc(Cc2n[nH]c(=O)c3ccccc23)ccc1F)N1CCN(C(=O)C2CC2)CC1 [Olaparib] (first compound max 10 µM, 7x7, partner max 10 µM) | not met |
| CC1(C)CCC(CN2CCN(c3ccc(C(=O)NS(=O)(=O)c4ccc(NCC5CCOCC5)c([N+](=O)[O-])c4)c(Oc4cnc5[nH]ccc5c4)c3)CC2)=C(c2ccc(Cl)cc2)C1 [Venetoclax] + C=CCn1c(=O)c2cnc(Nc3ccc(N4CCN(C)CC4)cc3)nc2n1-c1cccc(C(C)(C)O)n1 [AZD1775] (first compound max 1 µM, partner max 1 µM) | not met |
| CS(=O)(=O)CCNCc1ccc(-c2ccc3ncnc(Nc4ccc(OCc5cccc(F)c5)c(Cl)c4)c3c2)o1 [Lapatinib] + NC1(c2ccc(-c3nc4ccn5c(=O)[nH]nc5c4cc3-c3ccccc3)cc2)CCC1 [MK-2206] (first compound max 10 µM, 7x7, partner max 10 µM) | met |
| Cn1cnc2c(F)c(Nc3ccc(Br)cc3Cl)c(C(=O)NOCCO)cc21 [Selumetinib] + C[C@@H]1COCCN1C2=NC(=NC(=C2)C3(CC3)[S@](=N)(=O)C)C4=C5C=CNC5=NC=C4 [AZD6738] (first compound max 10 µM, 7x7, partner max 10 µM) | met |

Data request: Please tell me: is the molecule COc1nnc2ccc(N3CCC(c4ccc(OCCN5CCN(C)C(=O)[C@H]5C)cc4)CC3)nn12 [AZD5153] + Cc1c2c(nn1C)CSCc1cc(n(C)n1)CSc1cc(c3ccccc3c1)OCCCc1c(C(=O)O)n(C)c3c-2c(Cl)ccc13 [AZD5991] (first compound max 1 µM, 7x7, partner max 1 µM) at or over 0.6 in terms of combination Emax?
Data returned: met

Data request: Please tell me: is the molecule Cc1cc2ncnn2cc1Nc1ncc2c(n1)n(C1CCOCC1)c(=O)n2C [AZD7648] + CN(C)CCCOc1ccc(-c2ccc3ncc4c(c3c2)n(C2CCOCC2)c(=O)n4C)cn1 [AZD0156] (first compound max 10 µM, 7x7, partner max 1 µM) at or over 0.6 in terms of combination Emax?
Data returned: not met

Data request: Please tell me: is the molecule CS(=O)(=O)CCNCc1ccc(-c2ccc3ncnc(Nc4ccc(OCc5cccc(F)c5)c(Cl)c4)c3c2)o1 [Lapatinib] + C[C@@H](Oc1cc(-c2cnn(C3CCNCC3)c2)cnc1N)c1c(Cl)ccc(F)c1Cl [Crizotinib] (first compound max 10 µM, 7x7, partner max 10 µM) at or over 0.6 in terms of combination Emax?
Data returned: met

Data request: Please tell me: is the molecule NC1(C(=O)N[C@@H](CCO)c2ccc(Cl)cc2)CCN(c2ncnc3[nH]ccc23)CC1 [Capivasertib] + CCN(CCO)CCCOc1ccc2c(Nc3cc(CC(=O)Nc4cccc(F)c4)[nH]n3)ncnc2c1 [AZD2811] (first compound max 10 µM, 7x7, partner max 1 µM) at or over 0.6 in terms of combination Emax?
Data returned: not met

Data request: Please tell me: is the molecule Cc1c2c(nn1C)CSCc1cc(n(C)n1)CSc1cc(c3ccccc3c1)OCCCc1c(C(=O)O)n(C)c3c-2c(Cl)ccc13 [AZD5991] + C1CN(CCC1(C(=O)N[C@@H](CCO)C2=CC=C(C=C2)Cl)N)C3=NC=NC4=C3C=CN4 [Capivasertib] (first compound max 1 µM, 7x7, partner max 3 µM) at or over 0.6 in terms of combination Emax?
Data returned: not met

Data request: Please tell me: is the molecule CC(=O)Nc1cccc(-n2c(=O)n(C3CC3)c(=O)c3c(Nc4ccc(I)cc4F)n(C)c(=O)c(C)c32)c1 [Trametinib] + Cc1nc(-c2cn3c(n2)-c2ccc(-c4cnn(C(C)(C)C(N)=O)c4)cc2OCC3)n(C(C)C)n1 [Taselisib] (first compound max 1 µM, 7x7, partner max 10 µM) at or over 0.6 in terms of combination Emax?
Data returned: met

Data request: Please tell me: is the molecule CC1(C)CCC(CN2CCN(c3ccc(C(=O)NS(=O)(=O)c4ccc(NCC5CCOCC5)c([N+](=O)[O-])c4)c(Oc4cnc5[nH]ccc5c4)c3)CC2)=C(c2ccc(Cl)cc2)C1 [Venetoclax] + C[C@@H](Nc1cc(F)cc(F)c1)c1cc(C(=O)N(C)C)cc2c(=O)cc(N3CCOCC3)oc12 [AZD8186] (first compound max 1 µM, 7x7, partner max 3 µM) at or over 0.6 in terms of combination Emax?
Data returned: met

Data request: Please tell me: is the molecule C[C@@H](Oc1cc(-c2cnn(C3CCNCC3)c2)cnc1N)c1c(Cl)ccc(F)c1Cl [Crizotinib] + CC1=C(C(=CC=C1)Cl)NC(=O)C2=CN=C(S2)NC3=CC(=NC(=N3)C)N4CCN(CC4)CCO [Dasatinib] (first compound max 10 µM, 7x7, partner max 2 µM) at or over 0.6 in terms of combination Emax?
Data returned: met
